molecular target: Estrogen receptor (Homo sapiens); assay: qHTS assay to identify small molecule agonists of the estrogen receptor alpha (ER-alpha) signaling pathway in the presence of an antagonist (AID 1259383); details: VM7Luc4E2 cells, ERE-luciferase, +ICI-182,780, 22 h; series mostly up to 92.4 µM; note: nearly all actives have a fitted effect of over 15% in size
Active and inactive are the calls of the source. Calls come from the whole dose curve.
Allowed answers: Y for active, N for inactive

Called result for `COC(=O)C1=C(C)NC(C)=C(C(=O)O[C@@H]2CCCN(Cc3ccccc3)C2)[C@@H]1c1cccc([N+](=O)[O-])c1`
N

Called result for CCCCN1CCCC1C(=O)Nc1c(C)cc(C)cc1C (stereo not drawn)
N

Called result for CCOC(=O)C1=C(C)NC(C)=C(C(=O)OC)C1c1cccc(Cl)c1Cl (stereo not drawn)
N

Called result for `CN(C)CCN1C(=O)c2ccccc2N(C)c2ccccc21`
N

Called result for CCCCN(CCCC)C(C(N)=O)c1ccc(OC)cc1 (stereo not drawn)
N

Called result for `CCOC(=O)[C@H](CCc1ccccc1)N[C@@H](C)C(=O)N(CC(=O)O)C1Cc2ccccc2C1`
N

Called result for `CN1CC(=O)N2[C@H](c3ccc4c(c3)OCO4)c3[nH]c4ccccc4c3C[C@@H]2C1=O`
N

Called result for CN1CCCC(n2nc(Cc3ccc(Cl)cc3)c3ccccc3c2=O)CC1 (stereo not drawn)
N

Called result for `C/C=C\C/C=C/CCCCCCCCOC(C)=O`
N

Called result for CC(CC1c2ccccc2CCc2ccccc21)CN(C)C (stereo not drawn)
N

Called result for `C[C@H]1c2cccc(O)c2C(O)=C2C(=O)[C@]3(O)C(O)=C(C(N)=O)C(=O)[C@@H](N(C)C)[C@@H]3[C@@H](O)[C@@H]21`
N

Called result for `Nc1nnc(-c2ccc([N+](=O)[O-])o2)o1`
N

Called result for `CS(=O)(=O)c1ccc(-c2cn3ccccc3n2)cc1`
N

Called result for `COc1ccccc1N1CCN(CCCCNC(=O)c2ccc(-c3ccc(C(C)=O)cc3)cc2)CC1`
N

Called result for CN1CCCN=C1COC(=O)C(O)(c1ccccc1)C1CCCCC1 (stereo not drawn)
N

Called result for `O=C(/C=C/c1ccccc1)OCCc1ccccc1`
Y

Called result for `O=C(CCc1ccc(O)cc1)c1c(O)cc(O)cc1O`
Y

Called result for `C1C[C@@H]2[C@H]3CC[C@H](C3)[C@@H]2C1`
N

Called result for `Cc1ccc(CO)cc1`
N

Called result for `Nc1ccc(N=Nc2ccccc2)c(N)c1`
N

Called result for `COC(=O)CS`
N

Called result for `C=Cc1ccc(S(=O)(=O)O)cc1`
N

Called result for `COc1ccc(OC(=O)N(CC(=O)O)Cc2ccc(OCCc3nc(-c4ccccc4)oc3C)cc2)cc1`
N

* * *

assay: qHTS assay to identify small molecule antagonists of the sonic hedgehog signaling (Shh) pathway (AID 1259369); conditions: NIH/3T3 Gli1-Luc reporter, Shh antagonist, luminescence 24 h; series mostly up to 92.4 µM; note: nearly all actives have a fitted effect of over 45% in size; note: potency is the fitted concentration of half-maximal effect
Records with an inconclusive call do not appear. Active and inactive are the calls of the source. Calls follow the shape of the full dose curve.
OBSERVATION TYPE: Potency

Here are 8 compounds together with their reported answers.
COMPOUND	OBS VALUE
O=C(O)c1cccc(-c2noc(-c3ccccc3F)n2)c1	0.237 µM (active)
CCOC(=O)[C@H](CCc1ccccc1)N[C@@H](C)C(=O)N(CC(=O)O)C1Cc2ccccc2C1	inactive
CCOC(=O)OC(C)OC(=O)[C@@H]1N2C(=O)[C@@H](NC(=O)[C@H](N)c3ccccc3)[C@H]2SC1(C)C (stereo partly specified)	inactive
Nc1cccc2c1CN(C1CCC(=O)NC1=O)C2=O (stereo unspecified)	inactive
CN(C)CCN1C(=O)c2ccccc2N(C)c2ccccc21	inactive
CCCC(=O)C(=O)O	inactive
O=[N+]([O-])c1ccc(Nc2ccc(Nc3ccccc3)c(S(=O)(=O)O)c2)c([N+](=O)[O-])c1	inactive
c1csc(SSc2cccs2)c1	13.7 µM (active)

Looking up `COc1ncnc(NS(=O)(=O)c2ccc(N)cc2)c1OC` , I see its Potency listed as inactive

Looking up CC(O)c1ccccc1 (stereo unspecified) , I see its Potency listed as inactive

Looking up `OCCN1CCN(CCCN2c3ccccc3Sc3ccc(Cl)cc32)CC1` , I see its Potency listed as 11.9 µM (active)
